tested target: T1, full-length human SUFU protein, 35S-radiolabeled (human, UniProt Q9UMX1-1 1-484, [35S]-methionine label)
T1 construct: human SUFU, full length, residues 1-484, from plasmid pGEM4Z-SUFU; also called 35S-SUFU; radiolabeled SUFU; source: in vitro transcription and translation (SP6, Promega), partially purified by ammonium sulfate precipitation
T1 sequence (looked up): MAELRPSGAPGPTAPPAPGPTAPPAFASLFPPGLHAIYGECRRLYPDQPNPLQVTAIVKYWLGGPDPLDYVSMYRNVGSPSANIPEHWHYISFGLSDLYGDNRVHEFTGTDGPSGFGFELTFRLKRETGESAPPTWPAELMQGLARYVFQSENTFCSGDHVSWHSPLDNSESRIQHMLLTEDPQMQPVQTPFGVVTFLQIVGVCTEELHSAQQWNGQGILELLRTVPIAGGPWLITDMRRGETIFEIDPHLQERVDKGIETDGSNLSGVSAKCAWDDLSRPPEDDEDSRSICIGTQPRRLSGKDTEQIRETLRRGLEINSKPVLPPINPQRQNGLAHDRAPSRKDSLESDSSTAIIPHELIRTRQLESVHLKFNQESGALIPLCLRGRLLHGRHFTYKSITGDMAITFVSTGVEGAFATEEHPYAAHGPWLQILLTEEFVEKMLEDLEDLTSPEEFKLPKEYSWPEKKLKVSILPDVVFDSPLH
protocol notes: pull-down; purified GST-GLI1_(68-232) variants (mock treated or ERK2 phosphorylated), 0 or 1.25-80 nM, on glutathione-Sepharose beads; ∼1 pmol 35S-SUFU in 200 μl; 15 min at 30°C, then 1 h at room temperature; Binding Buffer (20 mM Tris-HCl pH 7.5, 125 mM KOAc, 0.5 mM EDTA, 5 mM DTT, 0.1% Tween20, 12.5% glycerol) + 1 mg/ml BSA; bound SUFU quantified by SDS-PAGE and Phosphorimager; Kd from binding isotherms
condition set: one partner purified
result type: pKd
// pKd: -log10(molar conc.)

// sample GST-GLI1^S102, phosphorylated by ERK2 (domain or fragment, human, UniProt P08151-1 68-232, looked up, phosphorylated by ERK2; only intact SP site S102, only the SP site S102 intact; also called ERK2-treated GLI1^S102; source: bacteria, purified (glutathione-Sepharose); then phosphorylated with purified active ERK2) FSAPRSAVKLTKKRALSIAPLSDASLDLQTVIRTSPSSLVAFINSRCTAPGGSYGHLSIGTMAPSLGFPAQMNHQKGPAPSFGVQPCGPHDSARGGMIPHPQSRGPFPTCQLKSELDMLVGKCREEPLEGDMSAPNSTGIQDPLLGMLDGREDLEREEKREPESV , its pKd was 7.85

Entry GST-GLI1^AAA (GST-GLI1_(68-232) S102A S116A S130A), mock treated (domain or fragment, human, UniProt P08151-1 68-232, looked up, source: bacteria, purified (glutathione-Sepharose); mock treated (no ERK2)) FSSPRSAVKLTKKRALSISPLSDASLDLQTVIRTAPSSLVAFINSRCTAPGGSYGHLSIGTMAPSLGFPAQMNHQKGPSPSFGVQPCGPHDSARGGMIPHPQSRGPFPTCQLKSELDMLVGKCREEPLEGDMSSPNSTGIQDPLLGMLDGREDLEREEKREPESV ; pKd = 7.77

GST-GLI1_(68-232), wild type, phosphorylated by ERK2 (domain or fragment, human, UniProt P08151-1 68-232, looked up, phosphorylated by ERK2 to ∼3 mol phosphate per mole; most efficient sites Ser116 and Ser130, followed by Ser102 and Ser201, vector pGEX-LB; also called ERK2-phosphorylated GLI1; WT + ERK2; source: bacteria, purified (glutathione-Sepharose); then phosphorylated with purified active ERK2 (2 h, 30°C)) FSSPRSAVKLTKKRALSISPLSDASLDLQTVIRTSPSSLVAFINSRCTSPGGSYGHLSIGTMSPSLGFPAQMNHQKGPSPSFGVQPCGPHDSARGGMIPHPQSRGPFPTCQLKSELDMLVGKCREEPLEGDMSSPNSTGIQDPLLGMLDGREDLEREEKREPESV has a reported pKd of 7.03

get_value(item= GST-GLI1^SSS (GST-GLI1_(68-232) S70A S86A S146A S201A), mock treated (domain or fragment, human, UniProt P08151-1 68-232, looked up, only S102, S116 and S130 left intact; source: bacteria, purified (glutathione-Sepharose); mock treated (no ERK2)) FSAPRSAVKLTKKRALSIAPLSDASLDLQTVIRTSPSSLVAFINSRCTSPGGSYGHLSIGTMSPSLGFPAQMNHQKGPAPSFGVQPCGPHDSARGGMIPHPQSRGPFPTCQLKSELDMLVGKCREEPLEGDMSAPNSTGIQDPLLGMLDGREDLEREEKREPESV , readout=pKd) returns 8.59

Reported pKd ( GST-GLI1^S116 (GST-GLI1_(68-232), only S116 intact), mock treated (domain or fragment, human, UniProt P08151-1 68-232, looked up, only the SP site S116 intact; also called S116 one site only; source: bacteria, purified (glutathione-Sepharose); mock treated (no ERK2)) FSAPRSAVKLTKKRALSIAPLSDASLDLQTVIRTAPSSLVAFINSRCTSPGGSYGHLSIGTMAPSLGFPAQMNHQKGPAPSFGVQPCGPHDSARGGMIPHPQSRGPFPTCQLKSELDMLVGKCREEPLEGDMSAPNSTGIQDPLLGMLDGREDLEREEKREPESV ) = 7.85
